Measurement Description: Oral pharmacokinetics/bioavailability of prodrugs vs parent (compound 1) in rats, plasma LC/MS/MS
Format: in vivo, Sprague Dawley rats
Measurement Parameters: Sprague Dawley; unchanged prodrug in rat plasma after single oral gavage dose; suspension in DMSO/ethanol/PEG300/0.1% N-methyl-D-glucamine
Overview of reported Cmax across a group of compounds:
Endpoint Label: Cmax

[
  {
    "Smiles Code": "CCCn1c(=O)c2c(nc(-c3cnn(Cc4cccc(C(F)(F)F)c4)c3)n2COC(=O)NCCN(C)C)n(CC)c1=O",
    "Endpoint Label": "Cmax",
    "Reported Value": "< 5 ng/mL"
  },
  {
    "Smiles Code": "CCCC(=O)OCn1c(-c2cnn(Cc3cccc(C(F)(F)F)c3)c2)nc2c1c(=O)n(CCC)c(=O)n2CC",
    "Endpoint Label": "Cmax",
    "Reported Value": "< 5 ng/mL"
  },
  {
    "Smiles Code": "CCCn1c(=O)c2c(nc(-c3cnn(Cc4cccc(C(F)(F)F)c4)c3)n2COC(C)=O)n(CC)c1=O",
    "Endpoint Label": "Cmax",
    "Reported Value": "< 5 ng/mL"
  },
  {
    "Smiles Code": "CCCn1c(=O)c2c(nc(-c3cnn(Cc4cccc(C(F)(F)F)c4)c3)n2COP(=O)(O)O)n(CC)c1=O",
    "Endpoint Label": "Cmax",
    "Reported Value": "< 5 ng/mL"
  },
  {
    "Smiles Code": "CCCn1c(=O)c2c(nc(-c3cnn(Cc4cccc(C(F)(F)F)c4)c3)n2COC(=O)C(C)(C)C)n(CC)c1=O",
    "Endpoint Label": "Cmax",
    "Reported Value": "< 5 ng/mL"
  }
]
